Data provenance is PubChem BioAssay AID274.

# reported T/C; entries follow
- Tested on: BDF1 mice, Lewis lung carcinoma iv, survival T/C
- experiment.summary: NCI In Vivo Anticancer Drug Screen. Data for tumor model Lewis Lung Carcinoma (intravenous) in B6D2F1 (BDF1) mice
- condition.parameters: endpoint: median survival time; dose: 50.0 mg/kg/injection; schedule: Q01DX009 (ip); vehicle: saline with Tween-80; higher = longer survival
Toxic doses and inconclusive results are not listed.

> print(dat)
                        compound       test.value
1  CC(C#N)(C#N)N=Nc1ccc(Cl)cc1Cl  92 % of control

Consider the compound shown here: COc1ccc(C(=O)c2no[n+]([O-])c2C(=O)c2ccc(OC)cc2)cc1 What is its recorded T/C?
95 % of control

====

- Tested on: BDF1 mice, Lewis lung carcinoma iv, survival T/C
- experiment.summary: NCI In Vivo Anticancer Drug Screen. Data for tumor model Lewis Lung Carcinoma (intravenous) in B6D2F1 (BDF1) mice
- condition.parameters: endpoint: median survival time; dose: 50.0 mg/kg/injection; schedule: Q01DX009 (ip); vehicle: saline; higher = longer survival
Toxic doses and inconclusive results are not listed.
reported.endpoint: T/C

Solved entries (count: 3):
> print(dat)
                                   compound        test.value
1  Nc1nc(/C=C(/O)c2ccccc2)c2ncn(C3OC(CO)C(O)C3O)c2n1 (stereo not drawn)  102 % of control
2  COc1nc(=O)n(C2C=CC(=O)O2)cc1F (stereo not drawn)  102 % of control
3  CCOC(=O)C(N)CSC(=O)NC (stereo not drawn)   98 % of control

Hello, I am looking for reported T/C with BDF1 mice, Lewis lung carcinoma iv, survival T/C for S=c1c2[nH]cnc2ncn1CCSC1=NC=NC2=NC=NC21 (stereo not drawn) . Could you help?
96 % of control

Hello, I am looking for reported T/C with BDF1 mice, Lewis lung carcinoma iv, survival T/C for c1ccc(CCN2CCC(CCc3c[nH]c4ccccc34)CC2)cc1 . Could you help?
116 % of control

====

# reported T/C; entries follow
- Test system: BDF1 mice, Lewis lung carcinoma iv, survival T/C
- experiment.summary: NCI In Vivo Anticancer Drug Screen. Data for tumor model Lewis Lung Carcinoma (intravenous) in B6D2F1 (BDF1) mice
- condition.parameters: endpoint: median survival time; dose: 50.0 mg/kg/injection; schedule: Q01DX009 (ip); vehicle: saline with Tween-80; higher = longer survival
Inconclusive results and toxic doses are left out.

Solved entries (count: 2):
> print(dat)
                                   compound  reported.endpoint       test.value
1  O=C(Nc1cccc(Cl)c1)ON1C(=O)C2C(C1=O)C1(Cl)C(Cl)C(Cl)C2(Cl)C1(Cl)Cl (configuration not stated)                T/C  98 % of control
2  Cc1cn(C2CC(O)C(CO)O2)c(=O)[nH]c1=O (configuration not stated)                T/C  88 % of control

Consider the compound shown here: CCN1CSC(=S)N(CC)C1 What is its recorded T/C?
101 % of control

Consider the compound shown here: Cc1ccc(N=NN(C)C)cc1 What is its recorded T/C?
105 % of control

Consider the compound shown here: CCOC(C)C(/C=N/NC(N)=S)=NNC(N)=S (configuration not stated) What is its recorded T/C?
104 % of control

====

- Tested on: BDF1 mice, Lewis lung carcinoma iv, survival T/C
- experiment.summary: NCI In Vivo Anticancer Drug Screen. Data for tumor model Lewis Lung Carcinoma (intravenous) in B6D2F1 (BDF1) mice
- condition.parameters: endpoint: median survival time; dose: 25.0 mg/kg/injection; schedule: Q01DX009 (ip); vehicle: saline with Tween-80; higher = longer survival
Inconclusive results and toxic doses are left out.
# reported T/C; entries follow

Solved entries (count: 3):
> print(dat)
                                   compound        test.value
1                               CC(=O)N(C)O  102 % of control
2       COc1cc2cc[n+](C)c(Cc3ccccc3)c2cc1OC   95 % of control
3  COC(=O)c1cc2cc3c(c(O)c2c(=O)o1)OC1(Cc2c(O)c4c(c(O)c2O1)C(=O)C(OC)CC4=O)CC3O (centres undefined)  120 % of control

Now for another entry.
Consider the compound shown here: CCCCCCCCCCCCCCCC[N+]1(C)CCN(SN2CC[N+](C)(CCCCCCCCCCCCCCCC)CC2)CC1 What is its recorded T/C?
109 % of control

====

- Test system: BDF1 mice, Lewis lung carcinoma iv, survival T/C
- experiment.summary: NCI In Vivo Anticancer Drug Screen. Data for tumor model Lewis Lung Carcinoma (intravenous) in B6D2F1 (BDF1) mice
- condition.parameters: endpoint: median survival time; dose: 200.0 mg/kg/injection; schedule: Q01DX009 (ip); vehicle: saline with Tween-80; higher = longer survival
Toxic doses and inconclusive results are not listed.
reported.endpoint: T/C

Consider the molecule shown here: O=C1NC(O)c2ccccc2O1 (stereo not drawn) What is its recorded T/C?
112 % of control

Consider the molecule shown here: O=C(Nc1nncs1)c1cccs1 What is its recorded T/C?
98 % of control

Consider the molecule shown here: O=C1N(Cl)C(=O)C(c2ccc(Cl)cc2)(c2ccc(Cl)cc2)N1Cl What is its recorded T/C?
103 % of control

Consider the molecule shown here: COc1ccc2nonc2c1 What is its recorded T/C?
103 % of control

Consider the molecule shown here: OCC1OC(n2cnc3cc(Cl)c(Cl)cc32)C(O)C1O (stereo not drawn) What is its recorded T/C?
90 % of control

Consider the molecule shown here: CN1c2ccc3ccccc3c2Sc2ccc3ccccc3c21 What is its recorded T/C?
98 % of control

Consider the molecule shown here: CN1C(=O)C(=Cc2ccc(O)cc2)C(=O)N(C)C1=O What is its recorded T/C?
101 % of control

Consider the molecule shown here: COC1/C=C/O[C@@]2(C)Oc3c(C)c(O)c4c(O)c(cc(O)c4c3C2=O)NC(=O)/C(C)=C\C=C\[C@H](C)C(O)[C@@H](C)[C@@H](O)[C@@H](C)[C@H](OC(C)=O)[C@@H]1C (stereo partly drawn) What is its recorded T/C?
102 % of control

====

# reported T/C; entries follow
- Tested on: BDF1 mice, Lewis lung carcinoma iv, survival T/C
- experiment.summary: NCI In Vivo Anticancer Drug Screen. Data for tumor model Lewis Lung Carcinoma (intravenous) in B6D2F1 (BDF1) mice
- condition.parameters: endpoint: median survival time; dose: 6.25 mg/kg/injection; schedule: Q01DX009 (ip); vehicle: Klucel (hydroxypropylcellulose) (HPC); higher = longer survival
Toxic doses and inconclusive results are not listed.

> print(dat)
                                   compound        test.value
1  CC(=O)OCC1OC(n2cc(CBr)nn2)C(OC(C)=O)C(OC(C)=O)C1OC(C)=O (stereo unspecified)   88 % of control
2          O=C(CN1CC1)NCCCCCCCCNC(=O)CN1CC1  112 % of control
3  C1CCC2OCCOCCOC3CCCCC3OCCOCCOC2C1 (stereo unspecified)   87 % of control
4  O=C(Nc1ccc(N=C=S)cc1Cl)c1cc(Cl)cc(Cl)c1O   97 % of control
5  COc1ccc2nc3cc(Cl)ccc3c(NCCNCCNCCNc3c4ccc(Cl)cc4nc4ccc(OC)cc34)c2c1  103 % of control

Now for another entry.
Consider the compound shown here: CCN(C)N=Nc1ccc(C(N)=O)cc1 What is its recorded T/C?
104 % of control

====

- Tested on: BDF1 mice, Lewis lung carcinoma iv, survival T/C
- experiment.summary: NCI In Vivo Anticancer Drug Screen. Data for tumor model Lewis Lung Carcinoma (intravenous) in B6D2F1 (BDF1) mice
- condition.parameters: endpoint: median survival time; dose: 12.5 mg/kg/injection; schedule: Q01DX009 (ip); vehicle: saline
Inconclusive results and toxic doses are left out. The calls were made as follows: active = survival T/C of 150% or more; inactive = T/C below 125% in these data.
Respond using exactly one of the listed classes: yes (1) = active, no (0) = inactive

> print(dat)
                                   compound  class.name
1  CC(=O)OCC1OC(n2ccc(N)nc2=O)C(OC(C)=O)C1OC(C)=O (stereo unspecified)      no (0)
2                 OCCNCCNc1ccnc2cc(Cl)ccc12      no (0)
3              CC1(C)COCN1COCCOCN1COCC1(C)C      no (0)
4     O=c1[nH]c(=O)c2nc(-c3cccnc3)cnc2[nH]1      no (0)
5  CCOC(=O)C(N)C[S][Sn]([CH3])([CH3])[Cl] (stereo unspecified)      no (0)

Tell me the recorded outcome of this test for C[C@]12CC[C@H]3[C@@H](CC[C@]4(O)C[C@@H](O)CC[C@]34C=O)[C@@]1(O)CC[C@@H]2C1=CC(=O)OC1 .
no (0)

Tell me the recorded outcome of this test for N=[N+]=CC(=O)OCC(N)C(=O)O (stereo unspecified) .
no (0)

Tell me the recorded outcome of this test for C(CSC1=NCCN1)CSC1=NCCN1 .
no (0)
